Molecular target: UniProt:Q13393
Sequence (Q13393 whole entry): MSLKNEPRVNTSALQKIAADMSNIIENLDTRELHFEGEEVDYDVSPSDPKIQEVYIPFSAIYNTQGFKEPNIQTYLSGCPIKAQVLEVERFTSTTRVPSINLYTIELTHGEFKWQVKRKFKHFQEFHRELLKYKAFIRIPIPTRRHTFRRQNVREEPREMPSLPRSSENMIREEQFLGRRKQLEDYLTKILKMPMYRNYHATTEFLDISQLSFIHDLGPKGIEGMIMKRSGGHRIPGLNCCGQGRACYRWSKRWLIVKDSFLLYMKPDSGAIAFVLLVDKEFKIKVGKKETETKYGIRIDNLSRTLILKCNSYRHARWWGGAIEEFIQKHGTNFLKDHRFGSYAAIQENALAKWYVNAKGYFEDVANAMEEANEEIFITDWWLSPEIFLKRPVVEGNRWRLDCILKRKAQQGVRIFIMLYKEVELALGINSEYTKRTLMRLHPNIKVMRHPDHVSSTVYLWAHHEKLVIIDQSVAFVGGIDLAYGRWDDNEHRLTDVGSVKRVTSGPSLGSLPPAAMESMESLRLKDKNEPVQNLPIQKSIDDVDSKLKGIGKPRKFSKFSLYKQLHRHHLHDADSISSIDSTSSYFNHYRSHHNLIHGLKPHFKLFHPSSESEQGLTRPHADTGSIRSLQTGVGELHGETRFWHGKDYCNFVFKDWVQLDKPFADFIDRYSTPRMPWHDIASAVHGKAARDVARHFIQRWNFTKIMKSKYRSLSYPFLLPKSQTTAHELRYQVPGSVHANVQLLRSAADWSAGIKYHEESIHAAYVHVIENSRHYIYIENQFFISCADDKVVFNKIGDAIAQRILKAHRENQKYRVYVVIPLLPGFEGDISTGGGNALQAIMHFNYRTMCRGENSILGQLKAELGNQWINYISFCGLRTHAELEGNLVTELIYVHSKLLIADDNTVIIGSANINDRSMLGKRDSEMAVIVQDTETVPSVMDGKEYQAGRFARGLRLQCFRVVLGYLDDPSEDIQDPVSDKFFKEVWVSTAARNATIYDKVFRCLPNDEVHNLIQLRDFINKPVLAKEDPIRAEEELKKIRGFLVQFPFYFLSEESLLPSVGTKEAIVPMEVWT
Assay: Cellular PLD1 assay with Calu-1 cells

Compound	IC50
CC(CNC(=O)c1ccc(F)c(F)c1)N1CCC2(CC1)C(=O)NCN2c1ccccc1 (stereo not shown)	~1000 nM
